// data source = ChEMBL document CHEMBL1201862

Data export: GI50 values recorded with HCT-15.

Return value of GI50 for input O=P1(Oc2ccccc2)N=P(c2ccccc2)(c2ccccc2)C=C(c2ccc(Cl)cc2)N1 (configuration not stated) , no commentary.
9.84 µM

Report measured GI50; entry is `CC/C=C/C(=O)CC(O)(C(F)(F)F)C(F)(F)F`
> 100 µM

# return recorded GI50 for entry `NC(=O)C(N)=O`
> 100 µM

Please supply the value of reported GI50 for the item `COC(=O)[C@@H]1CN(C(=O)CCc2ccccc2)C(=O)N1`
> 100 µM

Given COC(=O)C(C(=O)C(=O)Nc1ccc(Br)cc1)c1nc2ccc(Cl)cc2nc1O (configuration not stated) , respond with its GI50.
> 41.2 µM

Please report GI50 for the following molecule: `COc1cc(N(CCC#N)CCC#N)ccc1/C=C1\SC(=S)NC1=O`
> 100 µM

Please report the measured GI50 for `Cn1cc(-c2csc(-c3cn(C)c4ccccc34)n2)c2ccccc21`
> 100 µM

Retrieve GI50 measured for `CN(C)c1nc2oc(-c3ccccc3)c(-c3ccccc3)c2c2nnnn12` and print it.
> 100 µM

Note down GI50 recorded for `Cc1cc(C(=O)NCCN(C)C)c2nc3ccccc3cc2c1`
1.65 µM

Please list GI50 recorded for the molecule OCC12C3C4C5C3C1C5C42 (configuration not stated)
> 100 µM

Determine its reported GI50: `COc1ccc(-c2c(C#N)c(N)nc(Sc3ccccc3N)c2C#N)cc1`
24 µM

Specify reported GI50 for the molecule shown: `N#C/C(=C\c1cc(O)cc(O)c1)C(N)=O`
> 100 µM
